Target: T1, TFAM (no MTS) (Homo sapiens, UniProt Q00059 43-246)
T1 sequence: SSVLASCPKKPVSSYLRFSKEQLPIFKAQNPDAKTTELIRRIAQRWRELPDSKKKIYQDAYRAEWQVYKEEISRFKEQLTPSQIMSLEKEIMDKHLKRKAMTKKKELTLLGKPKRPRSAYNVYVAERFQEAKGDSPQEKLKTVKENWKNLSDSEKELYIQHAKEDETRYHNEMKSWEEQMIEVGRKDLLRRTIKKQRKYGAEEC
Assay: fluorescence anisotropy; +UVC; Hill n 2.33±0.10; FP: 25 mM HEPES, 10 mM Mg(OAc)2, 25 mM NaOAc, 75 mM KOAc, pH 7.5, 1 nM DNA, TFAM 0-15 nM diluted on ice (read temperature not stated); AFM oligos: on ice, 2 min
Conditions: protein: recombinant; label: 5' 6-FAM on strand 1; blunt
Attribute Measured: pKd
Answers are plain numbers, as −log10 of the molar value.

The binder RNR2_619 +UVC (dsDNA, UVC 1500 J/m2 photolesions (positions undefined)) DNA 1: ATTGATCCAATAACTTGACCAACGGAACAAGTT DNA 2: AACTTGTTCCGTTGGTCAAGTTATTGGATCAAT showed pKd equal to 8.09
